test: Solubility in methanol water mixtures (HPLC and UV absorption); format: physicochemical; conditions: organic solvent or mixture; 10 % Methanol in water
ENDPOINT NAME: solubility at 4 h

[Q] I have this compound here, CC(C)(C)[C@@H](O)[C@@H](Cc1ccc(Cl)cc1)n1cncn1 (racemic) , and I need its recorded solubility at 4 h.
[A] 53 µg/mL

---

test: Solubility in methanol water mixtures (HPLC and UV absorption); format: physicochemical; conditions: organic solvent or mixture; 20 % Methanol in water
ENDPOINT NAME: solubility at 4 h (µg/mL)
Answer in µg/mL, number only, no unit symbol.

[Q] I have this compound here, CC(C)(C)[C@@H](O)[C@@H](Cc1ccc(Cl)cc1)n1cncn1 (racemic) , and I need its recorded solubility at 4 h.
[A] 89

---

assay: Solubility in methanol water mixtures (HPLC and UV absorption); format: physicochemical; conditions: water (0% methanol), organic solvent or mixture; 0 % Methanol
ENDPOINT NAME: solubility at 4 h (µg/mL)
Answer in µg/mL, number only, no unit symbol.

[Q] I have this compound here, CC(C)(C)[C@@H](O)[C@@H](Cc1ccc(Cl)cc1)n1cncn1 (racemic) , and I need its recorded solubility at 4 h.
[A] 35
